Hi there, I'd appreciate the recorded Ki for every entry that follows.
assayed system: human MR (hMR) (Homo sapiens)
Construct: expressed in transfected cells; host or cells: COS-7
Sequence (P08235 whole entry): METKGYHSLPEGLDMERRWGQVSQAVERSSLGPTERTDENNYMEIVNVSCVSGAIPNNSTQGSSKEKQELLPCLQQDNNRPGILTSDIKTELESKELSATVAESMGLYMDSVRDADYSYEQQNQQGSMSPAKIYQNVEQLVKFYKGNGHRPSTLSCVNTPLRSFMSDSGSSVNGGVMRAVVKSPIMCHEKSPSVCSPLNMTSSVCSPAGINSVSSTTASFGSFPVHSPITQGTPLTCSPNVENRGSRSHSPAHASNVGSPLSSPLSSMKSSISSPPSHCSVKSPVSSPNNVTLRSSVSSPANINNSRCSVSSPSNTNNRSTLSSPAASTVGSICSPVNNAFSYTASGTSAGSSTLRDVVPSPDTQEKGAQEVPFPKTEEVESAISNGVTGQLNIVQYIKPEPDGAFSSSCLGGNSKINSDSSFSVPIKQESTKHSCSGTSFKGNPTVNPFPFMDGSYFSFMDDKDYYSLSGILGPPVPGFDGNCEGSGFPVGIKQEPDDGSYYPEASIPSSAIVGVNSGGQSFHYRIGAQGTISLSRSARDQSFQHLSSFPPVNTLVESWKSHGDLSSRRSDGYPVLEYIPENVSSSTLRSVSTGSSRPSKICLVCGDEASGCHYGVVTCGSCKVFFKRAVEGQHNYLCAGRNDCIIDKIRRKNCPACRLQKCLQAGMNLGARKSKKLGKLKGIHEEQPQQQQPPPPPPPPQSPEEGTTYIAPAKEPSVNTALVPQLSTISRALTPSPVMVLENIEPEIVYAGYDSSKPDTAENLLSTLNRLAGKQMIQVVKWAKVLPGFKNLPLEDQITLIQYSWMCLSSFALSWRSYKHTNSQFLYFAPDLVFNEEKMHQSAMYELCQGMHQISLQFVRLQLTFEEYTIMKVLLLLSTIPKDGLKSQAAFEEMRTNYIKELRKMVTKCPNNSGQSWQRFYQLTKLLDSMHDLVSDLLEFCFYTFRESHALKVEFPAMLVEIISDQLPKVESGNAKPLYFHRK
experiment: [3H]-aldosterone displacement from human MR, ligand-receptor binding assay in transfected COS-7 cells
measurement context: 1 nM [3H]-aldosterone, increasing concentrations of unlabeled ligand, one-site model
Numbers only here, please. The scale is µM.

Challenge: Record request: Ki value, item COC(=O)C1=C(CNC(C)=O)NC(C)=C(C#N)C1c1ccc(F)cc1Cl (centres unmarked)
Response given: 0.152

Challenge: Dear colleague, I am looking for the recorded Ki of the following molecule: COC(=O)C1=C(CNC(=O)OCc2ccccc2)NC(C)=C(C(N)=O)C1c1ccc(F)cc1Cl (centres unmarked)
Response given: 1.64

Challenge: Data request, read-out Ki, for COC(=O)C1=C([C@@H](NC(=O)OCc2ccccc2)C(C)C)NC(C)=C(C#N)C1c1ccc(F)cc1Cl (some centres unmarked) [Compound 13ab]
Response given: 1.41

Challenge: Look up Ki: CCOC(=O)C1=C(CNC(=O)OCc2ccccc2)NC(C)=C(C#N)C1c1ccc(F)cc1Cl (centres unmarked)
Response given: 0.355

Challenge: Give the measured Ki of COC(=O)C1=C(CNC(=O)OCc2ccccc2)NC(C)=C(C#N)C1c1ccc(F)cc1Cl (centres unmarked) .
Response given: 0.51

Challenge: Fill in: Ki of COC(=O)C1=C(CNC(=O)CC(=O)OC(C)(C)C)NC(C)=C(C#N)C1c1ccc(F)cc1Cl (centres unmarked) is ___
Response given: 0.858

Challenge: // Ki lookup, key: CC1=C(C#N)C(c2ccc(F)cc2Cl)C(C(=O)OC(C)(C)C)=C(CNC(=O)OCc2ccccc2)N1 (centres unmarked)
Response given: 1.07

Challenge: Form field: reported Ki of COC(=O)C1=C(C(C)NC(=O)OCc2ccccc2)NC(C)=C(C#N)C1c1ccc(F)cc1Cl (centres unmarked) [Compound 12b]
Response given: 1.36

Challenge: # query: Ki of entry COC(=O)C1=C(CNC(=O)[C@@H](N)CCC(=O)OC(C)(C)C)NC(C)=C(C#N)C1c1ccc(F)cc1Cl (some centres unmarked) [Compound 23a]
Response given: 0.74

Challenge: Query (molecule): COC(=O)C1=C(C(C)NC(=O)OCc2ccccc2)NC(C)=C(C#N)C1c1ccc(F)cc1Cl (centres unmarked) [Compound 12a] ; field requested: Ki
Response given: 0.566

Challenge: What does the data say about its Ki? Entry: COC(=O)C1=C(CNC(=O)OCc2ccccc2)NC(C)=C(C#N)C1c1ccc(C#N)cc1OC (centres unmarked)
Response given: 0.262

----------
assayed system: PXR (Homo sapiens, UniProt O75469)
Sequence (O75469 146-433 limits assumed): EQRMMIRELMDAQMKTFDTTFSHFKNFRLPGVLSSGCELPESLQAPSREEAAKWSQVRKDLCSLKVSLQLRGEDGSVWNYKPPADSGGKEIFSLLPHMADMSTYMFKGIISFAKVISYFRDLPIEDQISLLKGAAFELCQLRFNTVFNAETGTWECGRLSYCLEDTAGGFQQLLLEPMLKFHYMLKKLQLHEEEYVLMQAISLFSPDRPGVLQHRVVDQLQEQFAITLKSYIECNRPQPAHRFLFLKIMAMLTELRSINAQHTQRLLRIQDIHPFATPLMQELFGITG
experiment: AlphaScreen coactivator recruitment assay, agonist mode
Provide the recorded pEC50 for the entries that follow.
The scale used: pEC50 is minus the common logarithm of the concentration in molar units.

Challenge: # get_value(readout= pEC50, system= PXR (Homo sapiens, UniProt O75469)) for COC(=O)C1=C(CNC(C)=O)NC(C)=C(C#N)C1c1ccc(F)cc1Cl (centres unmarked) [Compound 19]
Response given: 4.89

Challenge: Quick check: pEC50 on PXR (Homo sapiens, UniProt O75469), item COC(=O)C1=C(CNC(=O)OCc2ccccc2)NC(C)=C(C#N)C1c1ccc(F)cc1Cl (centres unmarked) [Compound 11] ?
Response given: 6.02
